# System: Wolbachia pipientis
# PROTOCOL DETAILS: Anti-Wolbachia Cell-Based Screen
# Type: functional
# Design: scale not given: in the data most compounds retested in dose-response had high values
# TEST CONDITIONS: 5 µM
About 13,000 (27%) of roughly 48,000 compounds showed an effect of 50% or more. Some of the results follow.
Catalogue of compounds with associated Percent Effect
Your answer should be a plain number; it is taken to be in %.

Please review the entries below; each comes with its answer.
Cc1ccc(-c2noc([C@@H]3C[C@H](NC(=O)CC(C)(C)C)CN3C)n2)cc1
-9.06
CC(C)Oc1cccc(Cc2nc3c([nH]2)CCCNC3=O)c1
11.57
CCc1n[nH]c(C2CN(C(=O)c3cnc(C)s3)CCO2)n1 (stereo not given)
1.148
CCc1n[nH]c(C2CN(C(=O)c3cnc(C)cn3)CCO2)n1 (stereo not given)
99.84

Now look at this entry.
Requested read-out: Percent Effect. Entry: CCc1n[nH]c(C2CN(C(=O)c3cscn3)CCO2)n1 (stereo not given)
131.5

====

# System: Wolbachia pipientis
# PROTOCOL DETAILS: Anti-Wolbachia Cell-Based Screen
# Assay type: functional
# Design: scale not given: in the data most compounds retested in dose-response had high values
# TEST CONDITIONS: 5 µM
Hit rate of the full screen: of about 48,000 compounds, about 13,000 (27%) showed an effect of 50% or more. This is one part of the list.
// values below are reported Percent Effect
Quick note: give the figure in %, leave out the unit.

Answered examples (5):
Nc1ccnc(C(=O)N2CCCC3(CCC(=O)N(C4CCCC4)C3)C2)c1 (stereo unspecified)
1.558
Cc1c(C(=O)NCCC(=O)N2CCCC2)cccc1-c1ccccn1
102.1
COCCCN1CC2(CCCN(c3ncc(Cl)cc3F)C2)CCC1=O (stereo unspecified)
-2.307
Cc1c(C(=O)NCC(C)(C)S(C)(=O)=O)cccc1-c1ccccn1
90.41
Cc1c(NCC(C)(C)C)cccc1C(=O)NCc1ncnn1C
-8.622

Consider the record given below.
Dear colleague, I am looking for the recorded Percent Effect of the following molecule: O=C1CCCN1C1CCCN(CCn2cc(Cl)cn2)C1 (stereo unspecified)
92.68

====

# System: Wolbachia pipientis
# PROTOCOL DETAILS: Anti-Wolbachia Cell-Based Screen
# Assay type: functional
# Set-up: scale not given: in the data most compounds retested in dose-response had high values
# TEST CONDITIONS: 5 µM
In all, about 48,000 compounds went through this assay and about 13,000 (27%) showed an effect of 50% or more. The list shows a part of the results.
Recorded Percent Effect, one value per entry.
Numeric only. Scale: %

Cc1c(C(C)NC(=O)Nc2ccc(F)cc2F)cnn1C (stereo unspecified)
-7.694
O=C(O)C(F)(F)F.O=C(c1cnoc1)N1CCC[C@]2(C[C@H](Oc3ncccc3F)CO2)C1
-8.736
CN1CCCN(C(=O)c2cc3c(s2)CCN3C(=O)c2ccccc2)CC1
-3.728
CCc1[nH]c2c(CNC(=O)[C@@H]3CCCN3C)cc(C)cc2c1C
16.75

Which value of Percent Effect has been reported for CCOCCNC(=O)[C@@H]1CCCN1c1nccc(Nc2ccccc2)n1 in the records?
123.1

Now try NC(=O)CSc1nccc(-c2ccc3c(c2)OCO3)n1 .
94.21

Further, for O=C(Nc1ccc(OC(F)F)cc1)N1CCC(c2nnc[nH]2)CC1 ?
-4.065

Now consider Cc1cc2n(n1)CC(CNC1CCN(Cc3ccccn3)CC1)CN2 (stereo unspecified) and answer again.
3.925

Another compound to look at: CC(C)SCCn1ccc2[nH]c(=O)c(C#N)cc2c1=O
-14.16

// query: Cc1nc(N2CCCC2C(=O)NC(C)(C)CO)nc2ccccc12 (stereo unspecified)
-14.27

How about CCC(CC)c1cc(CNC(=O)N2CCCN(C(C)=O)CC2)on1 ?
-7.46

For NC(=O)c1ccc(N2CCCCC2)c(NC(=O)c2ccc(F)cc2Cl)c1 then?
-3.289

And the next one, CC(C)(C)NC(=O)CN1CCN(C(=O)Nc2ccc(F)cc2F)CC1 ?
10.15

Repeat with COc1ccccc1NC(=O)CC(C)NCc1scnc1C (stereo unspecified)
-14.83

Please give the result for CCn1cc(NC(=O)NCC(O)CN2CCCCC2)cn1 (stereo unspecified) too.
-8.278

Same question, CCNC(=O)[C@@H]1CCCN1[C@@H](C(=O)NC)c1ccccc1.Cl this time
1.454
